Origin of values: patent US20190336496A1

Test system: NCI-H508
Assay: Venetoclax cell killing (CellTiter-Glo)
Format: cell-based
Conditions: Homo sapiens, NCI-H508, 72 h; Colorectal; 10% FBS; 3 days
pIC50: −log10 of the molar value.

Line Notation: CC1(C)CCC(CN2CCN(c3ccc(C(=O)NS(=O)(=O)c4ccc(NCC5CCOCC5)c([N+](=O)[O-])c4)c(Oc4cnc5[nH]ccc5c4)c3)CC2)=C(c2ccc(Cl)cc2)C1
pIC50: 5.35

###

Tested on: COLO-320DM
Experiment: Venetoclax cell killing (CellTiter-Glo)
Type: cell-based
Conditions: Homo sapiens, 120 h, Colorectal, 10% FBS, 5 days
pIC50: −log10 of the molar value.

Line Notation: CC1(C)CCC(CN2CCN(c3ccc(C(=O)NS(=O)(=O)c4ccc(NCC5CCOCC5)c([N+](=O)[O-])c4)c(Oc4cnc5[nH]ccc5c4)c3)CC2)=C(c2ccc(Cl)cc2)C1
pIC50: < 5.00

###

Tested on: EMT6
Experiment: Venetoclax cell killing (CellTiter-Glo)
Format: cell-based, murine
Details: Mus musculus, EMT6, 72 h; Breast Cancer; 10% FBS; 3 days
Reported Endpoint: IC50

Compound: CC1(C)CCC(CN2CCN(c3ccc(C(=O)NS(=O)(=O)c4ccc(NCC5CCOCC5)c([N+](=O)[O-])c4)c(Oc4cnc5[nH]ccc5c4)c3)CC2)=C(c2ccc(Cl)cc2)C1 [Compound (I), venetoclax]
Test Value: > 10 µM

###

Test system: NCI-H187
Assay: Venetoclax cell killing (CellTiter-Glo)
Assay type: cell-based
Conditions: Homo sapiens, NCI-H187, 48 h; Lung; 10% HS; 2 days
pIC50: −log10 of the molar value.
Reported Endpoint: pIC50

Line Notation: CC1(C)CCC(CN2CCN(c3ccc(C(=O)NS(=O)(=O)c4ccc(NCC5CCOCC5)c([N+](=O)[O-])c4)c(Oc4cnc5[nH]ccc5c4)c3)CC2)=C(c2ccc(Cl)cc2)C1
Reported Endpoint: pIC50
Test Value: 5.52

###

Tested on: NCI-H1993
Experiment: Venetoclax cell killing (CellTiter-Glo)
Assay type: cell-based
Settings: Homo sapiens, NCI-H1993, 72 h; Lung; 10% FBS; 3 days
pIC50: −log10 of the molar value.

Compound: CC1(C)CCC(CN2CCN(c3ccc(C(=O)NS(=O)(=O)c4ccc(NCC5CCOCC5)c([N+](=O)[O-])c4)c(Oc4cnc5[nH]ccc5c4)c3)CC2)=C(c2ccc(Cl)cc2)C1 [Compound (I), venetoclax]
pIC50: 5.42

###

Tested on: MDA-MB-231
Assay: Venetoclax cell killing (CellTiter-Glo)
Assay type: cell-based
Details: Homo sapiens, MDA-MB-231, 72 h; Breast Cancer; 10% FBS; 3 days
Method: Solid tumor cell lines were obtained from American Type Culture Collection (ATCC, Manassas, Va.) or the National Cancer Institute (NCI) and cultured in humidified incubators at 37° C. […] After 1 to 5 days of culture in the presence of venetoclax, cell viability was assessed using CellTiter-Glo® reagent (Promega). IC50 values were determined by non-linear regression analysis of the concentration response data (Table 5 and Table 6).
Reported Endpoint: IC50 (µM)

Line Notation: CC1(C)CCC(CN2CCN(c3ccc(C(=O)NS(=O)(=O)c4ccc(NCC5CCOCC5)c([N+](=O)[O-])c4)c(Oc4cnc5[nH]ccc5c4)c3)CC2)=C(c2ccc(Cl)cc2)C1
Test Value: 4.83
